target: α5β3γ2 GABAA R (Homo sapiens, UniProt P18507+P31644); test: Binding activity on GABAA R: inhibition of [3H]Ro15-1788 binding, α5 containing receptor; details: ranges of the column heads; [3H]Ro15-1788, Ltk cell membranes
Sequence (P31644 32-462): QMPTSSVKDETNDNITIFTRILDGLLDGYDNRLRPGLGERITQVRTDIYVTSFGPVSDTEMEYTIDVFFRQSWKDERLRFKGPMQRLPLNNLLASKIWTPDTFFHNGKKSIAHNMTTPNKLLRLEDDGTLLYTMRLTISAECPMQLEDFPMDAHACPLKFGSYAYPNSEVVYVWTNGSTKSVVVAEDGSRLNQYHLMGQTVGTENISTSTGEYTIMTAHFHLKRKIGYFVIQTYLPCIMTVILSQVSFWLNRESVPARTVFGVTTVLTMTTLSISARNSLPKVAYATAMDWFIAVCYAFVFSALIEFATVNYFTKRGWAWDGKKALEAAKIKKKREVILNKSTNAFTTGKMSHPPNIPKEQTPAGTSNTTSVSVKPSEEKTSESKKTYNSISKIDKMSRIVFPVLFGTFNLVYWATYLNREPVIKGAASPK
Sequence (P28472 26-473 partner): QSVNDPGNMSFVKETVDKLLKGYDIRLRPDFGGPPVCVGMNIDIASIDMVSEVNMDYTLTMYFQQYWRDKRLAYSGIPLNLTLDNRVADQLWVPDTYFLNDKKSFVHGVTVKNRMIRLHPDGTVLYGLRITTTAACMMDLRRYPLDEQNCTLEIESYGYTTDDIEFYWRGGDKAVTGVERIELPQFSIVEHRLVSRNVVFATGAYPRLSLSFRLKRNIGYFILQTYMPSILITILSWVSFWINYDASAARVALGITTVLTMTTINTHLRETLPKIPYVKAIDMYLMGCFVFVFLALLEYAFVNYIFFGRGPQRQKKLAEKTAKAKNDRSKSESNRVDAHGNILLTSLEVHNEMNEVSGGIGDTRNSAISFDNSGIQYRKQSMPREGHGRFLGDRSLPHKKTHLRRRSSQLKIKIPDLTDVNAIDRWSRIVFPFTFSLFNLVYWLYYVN
Sequence (P18507 40-475): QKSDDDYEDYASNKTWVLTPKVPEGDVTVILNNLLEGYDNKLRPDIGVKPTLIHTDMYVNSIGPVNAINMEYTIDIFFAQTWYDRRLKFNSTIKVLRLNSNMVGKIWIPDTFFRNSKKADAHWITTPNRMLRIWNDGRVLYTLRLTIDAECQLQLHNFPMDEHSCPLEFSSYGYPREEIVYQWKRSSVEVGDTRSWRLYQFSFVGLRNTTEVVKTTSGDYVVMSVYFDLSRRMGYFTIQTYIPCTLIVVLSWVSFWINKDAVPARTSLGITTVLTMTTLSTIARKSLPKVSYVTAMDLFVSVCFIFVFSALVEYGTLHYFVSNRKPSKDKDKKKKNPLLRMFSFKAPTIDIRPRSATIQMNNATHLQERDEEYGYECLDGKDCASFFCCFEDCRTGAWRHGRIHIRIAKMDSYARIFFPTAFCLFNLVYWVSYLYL
pKi: −log10 of the molar value.
Listed compounds paired with reported pKi

Worked cases, pKi given:
{"columns": ["smilesNotation", "studySystem", "pKi"],
 "data": [
  ["COc1ccc2c(c1)-c1[nH]ncc1Cc1c(-c3noc(C(F)(F)F)n3)ncn1-2", "α5β3γ2 GABAA R (Homo sapiens, UniProt P18507+P31644)", "> 7.00"],
  ["Cc1noc(-c2ncn3c2Cc2cnoc2-c2cc(Cl)ccc2-3)n1", "α5β3γ2 GABAA R (Homo sapiens, UniProt P18507+P31644)", "< 6.00"],
  ["C[C@@H]1COC(c2ncn3c2Cc2cnn(Cc4ccccc4)c2-c2cc(Cl)ccc2-3)=N1", "α5β3γ2 GABAA R (Homo sapiens, UniProt P18507+P31644)", "6.00 to 7.00"],
  ["C[C@H]1COC(c2ncn3c2Cc2cnn(Cc4ccccc4)c2-c2cc(Cl)ccc2-3)=N1", "α5β3γ2 GABAA R (Homo sapiens, UniProt P18507+P31644)", "< 6.00"],
  ["CCn1cc2c(n1)-c1cc(Cl)ccc1-n1cnc(-c3nc(C4CC4)no3)c1C2", "α5β3γ2 GABAA R (Homo sapiens, UniProt P18507+P31644)", "> 7.00"],
  ["COCc1noc(-c2ncn3c2Cc2cn(CC4COC4)nc2-c2cc(OC)ccc2-3)n1", "α5β3γ2 GABAA R (Homo sapiens, UniProt P18507+P31644)", "> 7.00"]
]}

// switching to the query compound
Looking up "Cn1cc2c(n1)-c1cc(Cl)ccc1-n1cnc(-c3noc(C4COC4)n3)c1C2" , I found its pKi recorded as > 7.00
